# study_system: PIK3CB;PIK3CG;PIK3CD;PIK3CA (human) (UniProt P48736)
# protocol_summary: Enzyme Assay
pIC50: −log10 of the molar value.
Outcome label depends on pIC50 relative to 6: at/above gives True, below gives False.

{"compound": "O=C(c1nn(C2CCCN(CC3CCOCC3)C2)c2c1CS(=O)(=O)c1ccccc1-2)N1CCOCC1 (configuration not stated)", "study_system": "PIK3CB;PIK3CG;PIK3CD;PIK3CA (human) (UniProt P48736)", "class_assignment": "True"}
{"compound": "O=C(c1nn(C2CCN(CCC3CCOCC3)C2)c2c1CS(=O)(=O)c1ccccc1-2)N1CCOCC1 (configuration not stated)", "study_system": "PIK3CB;PIK3CG;PIK3CD;PIK3CA (human) (UniProt P48736)", "class_assignment": "True"}
{"compound": "O=C(c1nn(C2CCOCC2)c2c1CS(=O)(=O)c1ccccc1-2)N1CCOCC1", "study_system": "PIK3CB;PIK3CG;PIK3CD;PIK3CA (human) (UniProt P48736)", "class_assignment": "True"}
{"compound": "O=C(c1nn(C2CCCNC2)c2c1CS(=O)(=O)c1ccccc1-2)N1CCOCC1 (configuration not stated)", "study_system": "PIK3CB;PIK3CG;PIK3CD;PIK3CA (human) (UniProt P48736)", "class_assignment": "False"}
{"compound": "O=C(c1nn(-c2ccccc2)c2c1CS(=O)(=O)c1nccn1-2)N1CCOCC1", "study_system": "PIK3CB;PIK3CG;PIK3CD;PIK3CA (human) (UniProt P48736)", "class_assignment": "True"}
{"compound": "CS(=O)(=O)C1CCC(n2nc(C(=O)N3CCOCC3)c3c2-c2ccccc2S(=O)(=O)C3)CC1 (configuration not stated)", "study_system": "PIK3CB;PIK3CG;PIK3CD;PIK3CA (human) (UniProt P48736)", "class_assignment": "False"}

---

# study_system: PIK3CB;PIK3CG;PIK3CD;PIK3CA (human)
# protocol_summary: Enzyme Assay

{"molecule": "O=C(c1nn([C@H]2CCCN(Cc3cccnc3)C2)c2c1CS(=O)(=O)c1ccccc1-2)N1CCOCC1", "IC50 (nM)": 85}
{"molecule": "CC(C)(C)OC(=O)N1CCCC(n2nc(C(=O)N3CCOCC3)c3c2-c2ccccc2S(=O)(=O)C3)C1 (configuration not stated)", "IC50 (nM)": 1540}
{"molecule": "CN1c2c(C(=O)N3CCOCC3)nn(-c3ccccc3)c2-c2ccccc2S1(=O)=O", "IC50 (nM)": 3460}
{"molecule": "O=C(c1nn(-c2ccc(CN3CCC(O)C3)cc2)c2c1CS(=O)(=O)c1ccccc1-2)N1CCOCC1 (configuration not stated)", "IC50 (nM)": 859}
{"molecule": "O=C(c1nn(-c2cccc(Cn3cccn3)c2)c2c1CS(=O)(=O)c1ccccc1-2)N1CCOCC1", "IC50 (nM)": 488}
{"molecule": "CC(C)CCOC1CCN(Cc2ccc(-n3nc(C(=O)N4CCOCC4)c4c3-c3ccccc3S(=O)(=O)C4)cc2)C1 (configuration not stated)", "IC50 (nM)": 167}
{"molecule": "O=C(c1nn(CC2CCOCC2)c2c1CS(=O)(=O)c1ccccc1-2)N1CCOCC1", "IC50 (nM)": 789}
{"molecule": "COc1ccc2c(c1)-c1c(c(C(=O)N3CCOCC3)nn1[C@H]1CCCN(CCN3CCOCC3)C1)CS2(=O)=O", "IC50 (nM)": 28}
{"molecule": "O=C(c1nn([C@H]2CCCN(C3CCOCC3)CC2)c2c1CS(=O)(=O)c1ccccc1-2)N1CCOCC1", "IC50 (nM)": 340}
{"molecule": "O=C(c1nn(C2CN(CCN3CCOCC3)C2)c2c1CS(=O)(=O)c1ccccc1-2)N1CCOCC1", "IC50 (nM)": 236}
{"molecule": "O=C(c1nn([C@@H]2CCCN(CCC3CCOCC3)C2)c2c1CS(=O)(=O)c1c(F)cccc1-2)N1CCOCC1", "IC50 (nM)": 1920}
{"molecule": "COCCCN1CCC(n2nc(C(=O)N3CCOCC3)c3c2-c2ccccc2S(=O)(=O)C3)C1 (configuration not stated)", "IC50 (nM)": 923}

---

# study_system: PIK3CB;PIK3CG;PIK3CD;PIK3CA (human) (UniProt P48736)
# protocol_summary: Enzyme Assay
IC50 for assorted molecules

{"molecule": "Cc1ccc(-n2nc(C(=O)N3CCOCC3)c3c2-c2ccccc2S(=O)(=O)C3)cc1", "unit_descriptor": "µM", "IC50": 0.69}
{"molecule": "CNCc1ccc(-n2nc(C(=O)N3CCOCC3)c3c2-c2ccccc2S(=O)(=O)C3)cc1", "unit_descriptor": "µM", "IC50": 0.226}
{"molecule": "COCCN1CCC(Cn2nc(C(=O)N3CCOCC3)c3c2-c2ccccc2S(=O)(=O)C3)CC1", "unit_descriptor": "µM", "IC50": 0.681}
{"molecule": "COC1CCN(CCN2CCC[C@H](n3nc(C(=O)N4CCOCC4)c4c3-c3ccccc3S(=O)(=O)C4)C2)C1 (stereo not given in full)", "unit_descriptor": "µM", "IC50": 0.025}
{"molecule": "Cc1ccccc1-n1nc(C(=O)N2CCOCC2)c2c1-c1ccccc1S(=O)(=O)C2", "unit_descriptor": "µM", "IC50": 2.29}
{"molecule": "Cn1cc(-c2cccc(-n3nc(C(=O)N4CCOCC4)c4c3-c3ccccc3S(=O)(=O)C4)c2)cn1", "unit_descriptor": "µM", "IC50": 0.184}
{"molecule": "O=C(c1nn(-c2ccc(CO)cc2)c2c1CS(=O)(=O)c1ccccc1-2)N1CCOCC1", "unit_descriptor": "µM", "IC50": 1.06}
{"molecule": "O=C(c1nn(-c2cccc(-c3ccncc3)c2)c2c1CS(=O)(=O)c1ccccc1-2)N1CCOCC1", "unit_descriptor": "µM", "IC50": 0.193}
{"molecule": "O=C(c1nn(C2CCN(CCN3CC(F)(F)C3)C2)c2c1CS(=O)(=O)c1ccccc1-2)N1CCOCC1 (stereo not given)", "unit_descriptor": "µM", "IC50": 0.156}
{"molecule": "O=C(c1ccc2c(c1)-c1c(c(C(=O)N3CCOCC3)nn1-c1ccccc1)CS2(=O)=O)N1CCOCC1", "unit_descriptor": "µM", "IC50": 3.03}

---

# study_system: PIK3CB;PIK3CG;PIK3CD;PIK3CA (human)
# protocol_summary: Enzyme Assay
pIC50: −log10 of the molar value.

{"compound": "O=C(c1nn([C@H]2CCCN(CCF)C2)c2c1CS(=O)(=O)c1ccccc1-2)N1CCOCC1", "study_system": "PIK3CB;PIK3CG;PIK3CD;PIK3CA (human)", "pIC50": 6.70}
{"compound": "O=C(c1nn(-c2cccc(CN3CCC(F)CC3)c2)c2c1CS(=O)(=O)c1ccccc1-2)N1CCOCC1", "study_system": "PIK3CB;PIK3CG;PIK3CD;PIK3CA (human)", "pIC50": 6.36}
{"compound": "CC(C)CCN1CCCC(n2nc(C(=O)N3CCOCC3)c3c2-c2ccccc2S(=O)(=O)C3)C1 (stereo not drawn)", "study_system": "PIK3CB;PIK3CG;PIK3CD;PIK3CA (human)", "pIC50": 6.86}

---

# study_system: PIK3CB;PIK3CG;PIK3CD;PIK3CA (human) (UniProt P48736)
# protocol_summary: Enzyme Assay
log10(IC50) by entry:
value_type: log10(IC50) (log10 of the value in nM)

{"compound": "O=C(c1cccc(-n2nc(C(=O)N3CCOCC3)c3c2-c2ccccc2S(=O)(=O)C3)c1)N1CCS(=O)(=O)CC1", "log10(IC50)": 2.50}
{"compound": "CC(C)(C)OC(=O)N1CCC(Cn2nc(C(=O)N3CCOCC3)c3c2-c2ccccc2S(=O)(=O)C3)CC1", "log10(IC50)": 2.69}
{"compound": "CN1CCC(Cn2nc(C(=O)N3CCOCC3)c3c2-c2ccccc2S(=O)(=O)C3)CC1", "log10(IC50)": 3.42}
{"compound": "O=C(c1nn(-c2cccc(CN3CCC(F)(F)CC3)c2)c2c1CS(=O)(=O)c1ccccc1-2)N1CCOCC1", "log10(IC50)": 2.75}
{"compound": "CN1CCCC(Cn2nc(C(=O)N3CCOCC3)c3c2-c2ccccc2S(=O)(=O)C3)C1 (configuration not stated)", "log10(IC50)": 3.78}
{"compound": "O=C(c1nn(C2CCCCCC2)c2c1CS(=O)(=O)c1ccccc1-2)N1CCOCC1", "log10(IC50)": 2.67}
{"compound": "O=C(c1nn(-c2ccccc2)c2c1CS(=O)(=O)c1c(Br)cccc1-2)N1CCOCC1", "log10(IC50)": 2.69}
{"compound": "COCCN1CCC[C@H](n2nc(C(=O)N3CCOCC3)c3c2-c2cccc(OC)c2S(=O)(=O)C3)C1", "log10(IC50)": 2.11}
{"compound": "O=C(c1nn(-c2ccccc2F)c2c1CS(=O)(=O)c1ccccc1-2)N1CCOCC1", "log10(IC50)": 3.30}
{"compound": "O=C(c1nn(Cc2cc(Cl)cs2)c2c1CS(=O)(=O)c1ccccc1-2)N1CCOCC1", "log10(IC50)": 2.80}
{"compound": "O=C(c1nn(C2CCC(CN3CCOCC3)CC2)c2c1CS(=O)(=O)c1ccccc1-2)N1CCOCC1 (configuration not stated)", "log10(IC50)": 2.96}
{"compound": "O=C(c1nn(C2CCCN(C3COC3)C2)c2c1CS(=O)(=O)c1ccccc1-2)N1CCOCC1 (configuration not stated)", "log10(IC50)": 1.83}
{"compound": "CC(C)Cn1nc(C(=O)N2CCOCC2)c2c1-c1ccccc1S(=O)(=O)C2", "log10(IC50)": 2.98}
{"compound": "O=C(CCN1CCC[C@H](n2nc(C(=O)N3CCOCC3)c3c2-c2ccccc2S(=O)(=O)C3)C1)N1CCC(F)(F)C1", "log10(IC50)": 1.61}
{"compound": "CN(C)CCCn1nc(C(=O)N2CCOCC2)c2c1-c1ccccc1S(=O)(=O)C2", "log10(IC50)": 3.49}
{"compound": "O=C(c1cccc(-n2nc(C(=O)N3CCOCC3)c3c2-c2ccccc2S(=O)(=O)C3)c1)N1CCCC(CO)C1 (configuration not stated)", "log10(IC50)": 2.70}
{"compound": "O=C(c1ccoc1)N1CCC[C@H](n2nc(C(=O)N3CCOCC3)c3c2-c2ccccc2S(=O)(=O)C3)C1", "log10(IC50)": 2.88}
{"compound": "COc1ccc2c(c1)S(=O)(=O)Cc1c(C(=O)N3CCOCC3)nn([C@@H]3CCCN(CCC4CCOCC4)C3)c1-2", "log10(IC50)": 4.01}
{"compound": "O=C(c1nn(C2CCCN(CCC(F)(F)F)C2)c2c1CS(=O)(=O)c1ccccc1-2)N1CCOCC1 (configuration not stated)", "log10(IC50)": 2.17}
{"compound": "CC1(C)CCCC(n2nc(C(=O)N3CCOCC3)c3c2-c2ccccc2S(=O)(=O)C3)C1 (configuration not stated)", "log10(IC50)": 2.70}
{"compound": "O=C(c1nn(C2CCNCC2)c2c1CS(=O)(=O)c1ccccc1-2)N1CCOCC1", "log10(IC50)": 3.18}
{"compound": "CC(C)CCOC1CCN(Cc2cccc(-n3nc(C(=O)N4CCOCC4)c4c3-c3ccccc3S(=O)(=O)C4)c2)C1 (configuration not stated)", "log10(IC50)": 2.59}
{"compound": "CN1CCN(Cc2ccc(-n3nc(C(=O)N4CCOCC4)c4c3-c3ccccc3S(=O)(=O)C4)cn2)CC1", "log10(IC50)": 2.53}
{"compound": "CN(C)Cc1ccc(-n2nc(C(=O)N3CCOCC3)c3c2-c2ccccc2S(=O)(=O)C3)cc1", "log10(IC50)": 1.63}
{"compound": "COc1ccc2c(c1)S(=O)(=O)Cc1c(C(=O)N3CCOCC3)nn([C@H]3CCCN(CC4CCOC4)C3)c1-2 (some centres not stated)", "log10(IC50)": 1.64}
{"compound": "O=C(c1nn(-c2ccc(C3(CN4CCOCC4)CC3)cc2)c2c1CS(=O)(=O)c1ccccc1-2)N1CCOCC1", "log10(IC50)": 3.00}
{"compound": "O=C(c1nn(C2CCCN(Cc3ccccc3)C2)c2c1CS(=O)(=O)c1ccccc1-2)N1CCOCC1 (configuration not stated)", "log10(IC50)": 2.73}
{"compound": "O=C(c1nn([C@H]2CCN(CCC3CCOCC3)C2)c2c1CS(=O)(=O)c1c(F)cccc1-2)N1CCOCC1", "log10(IC50)": 1.96}
{"compound": "CS(=O)(=O)C1CCN(Cc2cccc(-n3nc(C(=O)N4CCOCC4)c4c3-c3ccccc3S(=O)(=O)C4)c2)C1 (configuration not stated)", "log10(IC50)": 2.67}
{"compound": "O=C(c1nn(CCCO)c2c1CS(=O)(=O)c1ccccc1-2)N1CCOCC1", "log10(IC50)": 3.35}
{"compound": "CC1(C)CN(Cc2ccc(-n3nc(C(=O)N4CCOCC4)c4c3-c3ccccc3S(=O)(=O)C4)cc2)CCO1", "log10(IC50)": 2.08}
{"compound": "O=C(c1nn(C2CCN(CC3CCOC3)C2)c2c1CS(=O)(=O)c1ccccc1-2)N1CCOCC1 (configuration not stated)", "log10(IC50)": 2.55}
